# system under test: T1, hCMV gB (expressed in HEK293T cells) (human cytomegalovirus, UniProt P06473 32-906)
# T1 construct: whole, on cells; also called envelope glycoprotein B; UL55
# T1 sequence (P06473 32-906 limits assumed): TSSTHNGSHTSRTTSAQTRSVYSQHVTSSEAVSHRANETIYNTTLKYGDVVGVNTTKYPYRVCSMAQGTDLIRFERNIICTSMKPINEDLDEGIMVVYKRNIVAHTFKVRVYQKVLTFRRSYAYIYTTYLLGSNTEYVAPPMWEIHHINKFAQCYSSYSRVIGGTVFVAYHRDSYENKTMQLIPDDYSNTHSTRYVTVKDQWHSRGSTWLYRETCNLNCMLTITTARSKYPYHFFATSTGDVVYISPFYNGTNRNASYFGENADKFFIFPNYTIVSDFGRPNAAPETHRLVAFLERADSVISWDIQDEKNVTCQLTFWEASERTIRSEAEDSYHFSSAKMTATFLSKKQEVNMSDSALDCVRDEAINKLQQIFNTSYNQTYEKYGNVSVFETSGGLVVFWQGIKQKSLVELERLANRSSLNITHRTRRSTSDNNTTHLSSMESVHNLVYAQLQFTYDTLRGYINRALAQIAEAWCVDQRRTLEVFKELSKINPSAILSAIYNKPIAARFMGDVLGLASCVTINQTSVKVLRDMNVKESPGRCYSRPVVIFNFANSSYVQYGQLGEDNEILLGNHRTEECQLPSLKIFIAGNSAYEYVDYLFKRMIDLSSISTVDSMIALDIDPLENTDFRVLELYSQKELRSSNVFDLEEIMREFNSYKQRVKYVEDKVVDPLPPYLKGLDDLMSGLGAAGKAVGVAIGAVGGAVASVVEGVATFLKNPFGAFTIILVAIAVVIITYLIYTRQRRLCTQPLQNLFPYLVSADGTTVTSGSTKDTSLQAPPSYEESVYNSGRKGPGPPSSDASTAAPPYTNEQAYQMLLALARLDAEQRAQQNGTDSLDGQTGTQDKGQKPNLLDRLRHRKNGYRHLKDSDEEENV
# method description: competitor: 4H9-biotin; cell staining
reported endpoint: Inhibition of binding (%)
Only the number, expressed in %, is required.

Examples from the recorded data:
>>> recorded_result("10C6 (antibody, V domains shown, human IgG; also called 10C6-biotin) VH: AVQLVESGGGLAQPGRSLRLSCKVSGFSFSNFEMNWVRQAPGKGLEWIAYIDFTGSTIYYSDSVKGRFTISRDTARNSLYLQMNKLRVEDTAVYYCVRDAGRWGTSWYYFDYWGQGTLVTVSS VL: QSVLTQPPSVSGAPGQRVTISCTGLSSNIGAGYDIHWYQQIPGKAPKLLIYGNNNRPSGVPDRFSGSKSGTSVSLAITGLQAEDEADYYCQSYDSSLNGWVFGGGTRLTVL")
100
>>> recorded_result("4H9 (antibody, V domains shown, human IgG; also called 4H9-biotin) VH: AVQLVESGGGLVRPGGSLRLSCAASGFTFSSHEMHWVRQAPGKGLEWLSYIDFTGSIIYYADSVRGRFTISRDNTKKSLFLQMNSLRDEDTALYYCARDGGRWGTSWYYFDYWGQGVLVTVSS VL: QSVLTQPPSVSGAPGQRVTITCTGSSSNFGAGYDGHWYQQLPGTAPKLLIYGSNRPSGVPDRFSGSKSGTSVSLAITGLQADDEADYYCQSYDSSLSAWVFGGGTKLTVL")
100

Now examine the next entry.
Q. GET /values?readout=Inhibition of binding (%)&item= 6B4 (antibody, V domains shown, human IgG; also called 6B4-biotin) VH: QVQLVESGGGVVQPGRSLRLSCAASGFRFNEFNMHWVRQAPGKGLEWVAVISIDGRHKYNADSVEGRFTISRDNSRNTLYLQMNSLRVEDTALYYCVTDGKAVDGFSGILEFWGQGTPVTVST VL: EIVLTQSPATLSLSPGERATLSCWASQSVGGYLAWYQQKPGQAPRLLIYDASIRATGIPARFSGSGSGTHFTLTINSLEPEDFAVYYCQQRNNWPPLTFGGGTKVEIK
A. 0
